Cited source: patent US9546172B2

molecular target: EGFR (Homo sapiens); test: EGFR kinase inhibition; assay type: biochemical
Sequence (P00533 25-1210): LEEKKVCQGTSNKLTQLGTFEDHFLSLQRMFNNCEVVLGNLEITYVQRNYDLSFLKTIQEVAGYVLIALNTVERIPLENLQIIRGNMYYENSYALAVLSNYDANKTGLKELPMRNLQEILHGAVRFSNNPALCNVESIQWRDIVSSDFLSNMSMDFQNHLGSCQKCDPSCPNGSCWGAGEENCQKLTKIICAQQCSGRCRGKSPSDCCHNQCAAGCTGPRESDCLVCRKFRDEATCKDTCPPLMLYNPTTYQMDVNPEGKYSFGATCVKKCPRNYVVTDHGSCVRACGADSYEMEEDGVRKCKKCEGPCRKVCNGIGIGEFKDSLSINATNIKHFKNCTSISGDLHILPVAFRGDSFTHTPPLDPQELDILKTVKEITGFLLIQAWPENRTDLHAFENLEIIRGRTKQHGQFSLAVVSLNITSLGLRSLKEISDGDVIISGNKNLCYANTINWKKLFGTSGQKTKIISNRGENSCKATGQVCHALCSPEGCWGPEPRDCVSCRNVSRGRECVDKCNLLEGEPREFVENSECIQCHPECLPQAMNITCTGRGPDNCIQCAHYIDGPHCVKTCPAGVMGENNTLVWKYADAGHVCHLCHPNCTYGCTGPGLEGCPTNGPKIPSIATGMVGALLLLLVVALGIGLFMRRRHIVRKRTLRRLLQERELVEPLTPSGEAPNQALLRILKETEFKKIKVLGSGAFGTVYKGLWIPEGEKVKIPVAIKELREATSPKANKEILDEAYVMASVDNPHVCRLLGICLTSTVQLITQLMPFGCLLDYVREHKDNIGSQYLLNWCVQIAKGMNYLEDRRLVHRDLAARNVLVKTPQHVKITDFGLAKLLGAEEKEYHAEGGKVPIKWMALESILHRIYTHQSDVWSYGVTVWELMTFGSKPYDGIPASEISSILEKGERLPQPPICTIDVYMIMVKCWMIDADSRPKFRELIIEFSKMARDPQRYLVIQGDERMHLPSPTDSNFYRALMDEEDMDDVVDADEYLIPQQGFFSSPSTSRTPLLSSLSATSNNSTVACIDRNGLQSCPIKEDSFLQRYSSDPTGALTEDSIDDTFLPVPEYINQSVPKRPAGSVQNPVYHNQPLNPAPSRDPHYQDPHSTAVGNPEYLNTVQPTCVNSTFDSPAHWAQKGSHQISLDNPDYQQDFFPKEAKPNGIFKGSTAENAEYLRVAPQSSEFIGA
pIC50: −log10 of the molar value.
pIC50 reference

Compound	pIC50
C=CC(=O)N(C)c1ccc(-n2nc(-c3ccc(C)c(OC)c3)c3c(N)ncnc32)cc1 [Example 18]	> 7.00

Simply: CN(C)C/C=C/C(=O)N1CC[C@@H](n2nc(-c3ccc(Cl)cc3)c3c(N)ncnc32)C1 [Example 1] , EGFR (Homo sapiens), pIC50 = 6.00 to 7.00

----------
target: CSK (Homo sapiens, UniProt P41240); assay: CSK kinase inhibition; type: biochemical
Sequence (P41240 whole entry): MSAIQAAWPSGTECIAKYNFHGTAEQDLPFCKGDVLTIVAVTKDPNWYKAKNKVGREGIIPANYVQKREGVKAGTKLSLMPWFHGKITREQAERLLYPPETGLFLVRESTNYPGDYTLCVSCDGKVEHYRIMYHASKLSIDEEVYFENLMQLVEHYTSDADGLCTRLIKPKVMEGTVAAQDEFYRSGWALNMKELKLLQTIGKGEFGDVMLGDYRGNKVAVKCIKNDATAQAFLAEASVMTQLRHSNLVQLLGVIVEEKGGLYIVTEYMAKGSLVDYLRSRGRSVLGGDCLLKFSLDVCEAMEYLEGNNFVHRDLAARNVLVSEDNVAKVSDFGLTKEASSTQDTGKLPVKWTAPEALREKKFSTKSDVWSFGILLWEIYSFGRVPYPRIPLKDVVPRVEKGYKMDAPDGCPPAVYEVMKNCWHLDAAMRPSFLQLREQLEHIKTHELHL
pIC50: −log10 of the molar value.
Readout label: pIC50

Consider the worked cases shown below.
Molecular string	pIC50
CN(C)C/C=C/C(=O)Nc1ccc(-n2nc(-c3ccc(Cl)cc3)c3c(N)ncnc32)cc1	6.00 to 7.00
COc1ccc(-c2nn([C@@H]3CCN(C(=O)/C=C/CN(C)C)C3)c3ncnc(N)c23)cc1	< 6.00
CN(C)C/C=C/C(=O)N1CC[C@@H](n2nc(-c3ccc(Cl)cc3)c3c(N)ncnc32)C1	6.00 to 7.00
CN(C)C/C=C/C(=O)N1CC[C@@H](n2nc(-c3ccc(Cl)cc3F)c3c(N)ncnc32)C1	6.00 to 7.00
COc1cccc(-c2nn([C@@H]3CCN(C(=O)/C=C/CN(C)C4CCC4)C3)c3ncnc(N)c23)c1	< 6.00

CN(C(=O)/C=C/CN(C)C1CC1)c1cccc(-n2nc(-c3ccc(Cl)cc3)c3c(N)ncnc32)c1 has a reported pIC50 of < 6.00

COc1cccc(-c2nn([C@@H]3CCN(C(=O)/C=C/CN(C)C)C3)c3ncnc(N)c23)c1 has a reported pIC50 of < 6.00

COc1cc(-c2nn(-c3cccc(N(C)C(=O)/C=C/CN(C)C4CC4)c3)c3ncnc(N)c23)ccc1C has a reported pIC50 of < 6.00

Cc1ccc(-c2nn([C@@H]3CCN(C(=O)/C=C/CN(C)C)C3)c3ncnc(N)c23)cc1 has a reported pIC50 of < 6.00

COc1cc(-c2nn([C@@H]3CCN(C(=O)/C=C/CN(C)C)C3)c3ncnc(N)c23)ccc1F has a reported pIC50 of < 6.00

CN(C)C/C=C/C(=O)N(C)c1ccc(-n2nc(-c3ccc(Cl)cc3)c3c(N)ncnc32)cc1 has a reported pIC50 of 6.00 to 7.00
